Where do these numbers come from? They come from the NIST ThermoML archive (doi:10.1021/acs.jced.9b00170).

Assay: activity coefficient (dimensionless); of the first substance listed, at infinite dilution; xn = mol fraction of the nth substance listed
Conditions: 353.1 K; 101.33 kPa; Liquid; Chromatography; x1 = 0
Answer each item with its documented activity coefficient.

Please report the recorded activity coefficient for CCCCCCC [heptane] + CCCC[N+]1(C)CCCC1.O=S(=O)([N-]S(=O)(=O)C(F)(F)F)C(F)(F)F .
13.6

Please report the recorded activity coefficient for CCCCCCCCCC [decane] + CCCC[n+]1ccc(C)cc1.F[B-](F)(F)F .
223

Please report the recorded activity coefficient for CCCCCCC [heptane] + CCCCn1cc[n+](C)c1.F[B-](F)(F)F .
62.2

Please report the recorded activity coefficient for CC1CCCCC1 [methylcyclohexane] + CCCCn1cc[n+](C)c1.F[B-](F)(F)F .
35.5

Please report the recorded activity coefficient for CCCCCCCCC [nonane] + CCCC[n+]1ccc(C)cc1.F[B-](F)(F)F .
131

Please report the recorded activity coefficient for CCCCCCC [heptane] + CCCC[n+]1ccc(C)cc1.F[B-](F)(F)F .
67.4

Please report the recorded activity coefficient for Cc1ccccc1 [toluene] + CCCC[N+]1(C)CCCC1.O=S(=O)([N-]S(=O)(=O)C(F)(F)F)C(F)(F)F .
1.37

Please report the recorded activity coefficient for CC1CCCC1 [methylcyclopentane] + CCCCn1cc[n+](C)c1.F[B-](F)(F)F .
28.8

Please report the recorded activity coefficient for CCCCCCCC [octane] + CCCCn1cc[n+](C)c1.F[B-](F)(F)F .
72.4
